assay: Fluorescence emission and fluorescence quantum yield; assay type: physicochemical; conditions: relative to magnesium tetra-tert-butylphthalocyanine in CHCl3, room temperature
readout: Φf (fluorescence quantum yield)

Use the examples below as a reference point.
smiles_string=F[B-]1(F)n2c(-c3ccccc3)cc(-c3ccccc3)c2N=C2C(c3ccccc3)=CC(c3ccccc3)=[N+]21 result_number=0.34
smiles_string=COc1ccc(C2=[N+]3C(=Nc4c(-c5ccccc5)cc(-c5ccc(OC)cc5)n4[B-]3(F)F)C(c3ccccc3)=C2)cc1 result_number=0.36

A = F[B-]1(F)n2c(c(-c3ccccc3)c(Br)c2-c2ccccc2)N=C2C(c3ccccc3)=C(Br)C(c3ccccc3)=[N+]21
B = COc1ccc(C2=[N+]3C(=Nc4c(-c5ccccc5)c(Br)c(-c5ccc(OC)cc5)n4[B-]3(F)F)C(c3ccccc3)=C2Br)cc1
Challenge: I need your help: which of the pair A , B has higher Φf (fluorescence quantum yield)? Indicate which entry you chose by stating its label.
Response given: B

---

system: HeLa cells; test: Light/dark cytotoxicity study (MTT) in HeLa cells; assay type: cell-based; conditions: Homo sapiens, light or radiation study, 0.5 h, 16 J/cm^2 light (30 mins from a 500 W light source), read-out: EC50
readout: EC50 (µM)
Only the number, expressed in µM, is required.

Form field EC50, entry CC1=C(CCC(=O)O)c2cc3[nH]c(cc4nc(cc5[nH]c(cc1n2)c(C)c5C(C)O)C(C)=C4C(C)O)c(C)c3CCC(=O)O (stereo not shown) [haematoporphyrin, reference compound] : 16

---

test: Fluorescence emission and fluorescence quantum yield; type: physicochemical; details: Water/Cremophor (100:1), room temperature
readout: λ em (fluorescence band) (nm)

smiles_string=COc1ccc(C2=[N+]3C(=Nc4c(-c5ccccc5)cc(-c5ccc(OC)cc5)n4[B-]3(F)F)C(c3ccccc3)=C2)cc1 result_number=727
smiles_string=F[B-]1(F)n2c(c(-c3ccccc3)c(Br)c2-c2ccccc2)N=C2C(c3ccccc3)=C(Br)C(c3ccccc3)=[N+]21 result_number=679
smiles_string=F[B-]1(F)n2c(-c3ccccc3)cc(-c3ccccc3)c2N=C2C(c3ccccc3)=CC(c3ccccc3)=[N+]21 result_number=683
smiles_string=COc1ccc(C2=[N+]3C(=Nc4c(-c5ccccc5)c(Br)c(-c5ccc(OC)cc5)n4[B-]3(F)F)C(c3ccccc3)=C2Br)cc1 result_number=719

---

assay: Spectroscopic absorbance properties; type: physicochemical; settings: Water/Cremophor (100:1), room temperature
readout: fwhm (full width at half maximum) (nm)

Past entries and their recorded results:
smiles_string=COc1ccc(C2=[N+]3C(=Nc4c(-c5ccccc5)cc(-c5ccc(OC)cc5)n4[B-]3(F)F)C(c3ccccc3)=C2)cc1 readout="fwhm (full width at half maximum)" result_number=57
smiles_string=F[B-]1(F)n2c(c(-c3ccccc3)c(Br)c2-c2ccccc2)N=C2C(c3ccccc3)=C(Br)C(c3ccccc3)=[N+]21 readout="fwhm (full width at half maximum)" result_number=57

A = F[B-]1(F)n2c(-c3ccccc3)cc(-c3ccccc3)c2N=C2C(c3ccccc3)=CC(c3ccccc3)=[N+]21
B = COc1ccc(C2=[N+]3C(=Nc4c(-c5ccccc5)c(Br)c(-c5ccc(OC)cc5)n4[B-]3(F)F)C(c3ccccc3)=C2Br)cc1
Challenge: Hi, I'm comparing two records. Which one has the lower fwhm (full width at half maximum), A or B ? Give the label under which the chosen entry appears.
Response given: A
(A: 53 nm, B: 86 nm)
